assay_system: glucocerebrosidase (Gcase) (Homo sapiens)
Construct: micellar solution containing 10 nM GCase and 100 nM saposin C
Sequence (P04062 40-536): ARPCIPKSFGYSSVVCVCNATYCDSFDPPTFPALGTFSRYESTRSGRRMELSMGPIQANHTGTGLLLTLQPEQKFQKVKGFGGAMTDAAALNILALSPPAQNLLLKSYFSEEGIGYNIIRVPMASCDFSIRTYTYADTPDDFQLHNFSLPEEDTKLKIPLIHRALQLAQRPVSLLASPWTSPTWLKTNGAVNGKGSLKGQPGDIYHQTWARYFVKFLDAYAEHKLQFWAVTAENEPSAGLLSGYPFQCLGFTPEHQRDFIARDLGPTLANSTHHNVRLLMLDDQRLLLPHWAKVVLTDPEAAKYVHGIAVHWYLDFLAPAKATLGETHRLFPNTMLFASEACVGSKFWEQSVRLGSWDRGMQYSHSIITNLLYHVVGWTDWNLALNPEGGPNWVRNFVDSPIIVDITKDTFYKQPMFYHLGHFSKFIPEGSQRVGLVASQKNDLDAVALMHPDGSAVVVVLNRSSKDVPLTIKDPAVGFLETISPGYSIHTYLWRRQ
run_description: Glucocerebrosidase (Gcase) activation assay, 4-methylumbelliferyl-beta-D-glucopyranoside substrate, fluorescence readout
Type: biochemical
condition_summary: test compound at 0.1 μM; read-out: Percent Gcase Activation, 0.1 μM Test Compound
Record form. Attribute: activation at 0.1 µM. Fill in for each entry.

IN: Requested read-out: activation at 0.1 µM. Entry: Cc1cc(C)n2ccc(C(=O)Nc3ccc(-c4ncco4)cc3C)c2n1 [III-150]
OUT: > 20%

IN: Field entry: COCc1cc(C)n2ccc(C(=O)NC(C)(C)c3ccc(-c4cocn4)cc3)c2n1 [III-48]
OUT: 10 to 20%

IN: Field entry: Cc1cc(C)n2c(F)cc(C(=O)Nc3ccc(-c4cocn4)cc3)c2n1 [III-271]
OUT: > 20%

IN: Field entry: Cc1cc(C)n2ccc(C(=O)NC3(C)CCOc4ccc(F)c(F)c43)c2n1 (stereo not shown) [III-173]
OUT: 10 to 20%

IN: Field entry: Cc1cc(C)n2ccc(C(=O)N[C@H]3CC[C@H](OC4CCCC4)CC3)c2n1 [III-132]
OUT: > 20%

IN: Field entry: Cc1cc(C)n2ccc(C(=O)N[C@H]3CC[C@@H](Oc4cccs4)CC3)c2n1 [III-189]
OUT: > 20%

IN: Field entry: Cc1cc(C(F)(F)F)n2ccc(C(=O)NC3CCCc4ccccc43)c2n1 (stereo not shown) [III-253]
OUT: < 10%

IN: Field entry: CCCCCO[C@@H]1CC[C@H](NC(=O)c2ccn3c(C)cc(C)nc23)C1 [III-145]
OUT: 10 to 20%

IN: Field entry: CCCCCOC1CCCC(NC(=O)c2ccn3c(C)cc(C)nc23)C1 (stereo not shown) [III-234]
OUT: > 20%

IN: Field entry: Cc1cc(C(F)F)nc2c(C(=O)NC3CCCc4ccccc43)ccn12 (stereo not shown) [III-29]
OUT: > 20%

IN: Field entry: CCCCO[C@H]1CC[C@H](NC(=O)c2ccn3c(COC)cc(CCC)nc23)CC1 [III-269]
OUT: 10 to 20%

IN: Field entry: COc1cc(C)n2ccc(C(=O)Nc3ccc(-c4cocn4)cc3)c2n1 [III-52]
OUT: 10 to 20%

IN: Field entry: Cc1cc(C)n2ccc(C(=O)Nc3ccc4nc(C)sc4c3)c2n1 [III-88]
OUT: 10 to 20%

IN: Field entry: [2H]c1c(C([2H])([2H])[2H])nc2c(C(=O)Nc3ccc(-c4cocn4)cc3)cc([2H])n2c1C([2H])([2H])[2H] [III-158]
OUT: > 20%

IN: Field entry: CCCCO[C@H]1C2CCC1C[C@@H](NC(=O)c1ccn3c(C)cc(C)nc13)C2 [III-185]
OUT: > 20%

IN: Field entry: Cc1cc(C)n2ccc(C(=O)N[C@H]3CC[C@H](OCC(C)(C)C)CC3)c2n1 [III-93]
OUT: > 20%

IN: Field entry: CCCOCCO[C@H]1CC[C@H](NC(=O)c2ccn3c(C)cc(C)nc23)CC1 [III-197]
OUT: < 10%

IN: Field entry: COCc1cc(C)n2ccc(C(=O)Nc3ccc(-c4cocn4)cc3)c2n1 [III-50]
OUT: > 20%

IN: Field entry: Cc1cc(C)n2ccc(C(=O)NCC3CCC4(CCCCO4)CC3)c2n1 (stereo not shown) [III-123]
OUT: < 10%

----------
assay_system: glucocerebrosidase (Gcase) (Homo sapiens)
Construct: micellar solution containing 10 nM GCase and 100 nM saposin C
run_description: Glucocerebrosidase (Gcase) activation assay, 4-methylumbelliferyl-beta-D-glucopyranoside substrate, fluorescence readout
Type: biochemical
condition_summary: test compound at 0.1 μM; read-out: Percent Gcase Activation, 0.1 μM Test Compound
reported_endpoint: activation at 0.1 µM

IN: Requested read-out: activation at 0.1 µM. Entry: C#Cc1cccc(C(C)(C)NC(=O)c2ccn3c(COC)cc(COC)nc23)c1 [III-157]
OUT: > 20%

IN: Field entry: COCCOCCO[C@H]1CC[C@H](NC(=O)c2ccn3c(C)cc(C)nc23)CC1 [III-105]
OUT: < 10%

IN: Field entry: Cc1cc(C)n2ccc(C(=O)NC3CCC(F)(F)CC3)c2n1 [III-92]
OUT: < 10%

IN: Field entry: CCCCO[C@H]1CC[C@H](NC(=O)c2ccn3c(C(C)C)cc(COC)nc23)CC1 [III-37]
OUT: 10 to 20%

IN: Field entry: CC[C@@H](C)O[C@H]1CC[C@H](NC(=O)c2ccn3c(C)cc(C)nc23)CC1 [III-241]
OUT: 10 to 20%

----------
run_description: Compound solubility in water
condition_summary: water, Compound Solubility in Water, in water
reported_endpoint: solubility (µg/mL)
Provide the reading as a plain figure in µg/mL.

IN: Requested read-out: solubility. Entry: Cc1cc(C)n2ccc(C(=O)NC3CC=C(c4ncco4)CC3)c2n1 (stereo not shown)
OUT: 27.1

IN: Field entry: "Cc1cc(C)n2ccc(C(=O)N[C@H]3CC[C@H](OC4CC4)CC3)c2n1"
OUT: 8.8

IN: Field entry: "Cc1cc(C(F)(F)F)n2ccc(C(=O)Nc3ccc(-c4cocn4)cc3)c2n1"
OUT: 0.6

IN: Field entry: "Cc1cc(C)n2ccc(C(=O)N[C@@H]3CCc4ccccc43)c2n1"
OUT: 0.2

IN: Field entry: Cc1cc(C)n2ccc(C(=O)NC3CCc4ccccc43)c2n1 (stereo not shown)
OUT: 1.8

IN: Field entry: Cc1cc(C)n2ccc(C(=O)NC3CCOc4ccc(-c5ncco5)cc43)c2n1 (stereo not shown)
OUT: 1

IN: Field entry: "CCCO[C@H]1CC[C@H](CNC(=O)c2ccn3c(C)cc(C)nc23)CC1"
OUT: 21.4

IN: Field entry: "CCCCCOc1ccc(NC(=O)c2ccn3c(C)cc(C)nc23)cc1"
OUT: 0.005

IN: Field entry: "Cc1cc(C)n2c(F)cc(C(=O)Nc3ccc(-c4cocn4)cc3)c2n1"
OUT: 0.7

IN: Field entry: Cc1cc(C(F)(F)F)nc2c(C(=O)NC3CCCc4ccccc43)ccn12 (stereo not shown)
OUT: 0.2

IN: Field entry: CCC(C)(NC(=O)c1ccn2c(C)cc(C)nc12)c1ccccc1 (stereo not shown)
OUT: 1.6

IN: Field entry: COC1CC(NC(=O)c2ccn3c(C)cc(C)nc23)c2ccccc21 (stereo not shown)
OUT: 23.8

IN: Field entry: CCCCCOC1CCCC(NC(=O)c2ccn3c(C)cc(C)nc23)C1 (stereo not shown)
OUT: 1.5

IN: Field entry: "Cc1cc(C)n2ccc(C(=O)Nc3cnc(-c4ncccn4)c(Cl)c3)c2n1"
OUT: 3.2

IN: Field entry: "Cc1cc(C)n2ccc(C(=O)N[C@H]3CC[C@H](Oc4cccnc4)CC3)c2n1"
OUT: 4.1

IN: Field entry: "C#CCCCCO[C@H]1CC[C@H](NC(=O)c2ccn3c(C)cc(C)nc23)CC1"
OUT: 0.8

IN: Field entry: "Cc1cc(C)n2ccc(C(=O)Nc3ccc(-c4cccs4)nc3)c2n1"
OUT: 0.01

IN: Field entry: Cc1cc(C)n2ccc(C(=O)NC3CCc4nc(C)oc4C3)c2n1 (stereo not shown)
OUT: 21.1

----------
run_description: Compound solubility in water
condition_summary: water, Compound Solubility in Water
reported_endpoint: solubility (µg/mL)
Provide the reading as a plain figure in µg/mL.

IN: Requested read-out: solubility. Entry: "Cc1cc(C)n2ccc(C(=O)N[C@H]3CCCc4ccccc43)c2n1"
OUT: 0.7

IN: Field entry: Cc1cc(C)n2ccc(C(=O)NC3CCC4(CCCO4)CC3)c2n1 (stereo not shown)
OUT: 17

IN: Field entry: "COCCCO[C@H]1CC[C@H](NC(=O)c2ccn3c(C)cc(C)nc23)CC1"
OUT: 13.2

IN: Field entry: "CCCOCCO[C@H]1CC[C@H](NC(=O)c2ccn3c(C)cc(C)nc23)CC1"
OUT: 16.9

IN: Field entry: "CCCCO[C@H]1C2CCC1C[C@@H](NC(=O)c1ccn3c(C)cc(C)nc13)C2"
OUT: 3.1

IN: Field entry: "C#CCCCO[C@H]1CC[C@H](NC(=O)c2ccn3c(C)cc(C)nc23)CC1"
OUT: 4.5

IN: Field entry: "Cc1cc(C)n2ccc(C(=O)NCC3CCC(F)(F)CC3)c2n1"
OUT: 15.3

IN: Field entry: "C#Cc1cccc(C(C)(C)NC(=O)c2ccn3c(C)cc(COC)nc23)c1"
OUT: 0.5
